Cited source: patent US20240132578A1

Listed binders paired with reported Primary Neutralization Index (B cell culture supernatant)
biological target: HIV-1 Env of pseudovirus MGRM-C-26 (HIV-1); assay: cell-based or functional assay
Please respond with just the number, no unit label.

Recorded Primary Neutralization Index (B cell culture supernatant), per entry:
Binder: PGT-130 (B cell culture well 5147_N6) (antibody, V domains shown) VH: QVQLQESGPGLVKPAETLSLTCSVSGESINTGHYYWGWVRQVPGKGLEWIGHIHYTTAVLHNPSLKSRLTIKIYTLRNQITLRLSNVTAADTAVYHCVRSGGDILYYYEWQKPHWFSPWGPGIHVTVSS VL: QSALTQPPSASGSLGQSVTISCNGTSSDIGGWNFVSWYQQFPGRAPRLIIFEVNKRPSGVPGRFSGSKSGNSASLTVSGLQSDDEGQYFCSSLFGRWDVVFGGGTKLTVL
Quantitative result: 3
--
Binder: PGT-131 (B cell culture well 5136_H1) (antibody, V domains shown) VH: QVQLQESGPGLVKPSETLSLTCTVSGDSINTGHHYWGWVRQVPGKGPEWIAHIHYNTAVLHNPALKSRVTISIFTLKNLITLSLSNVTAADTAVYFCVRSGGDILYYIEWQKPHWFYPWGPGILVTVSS VL: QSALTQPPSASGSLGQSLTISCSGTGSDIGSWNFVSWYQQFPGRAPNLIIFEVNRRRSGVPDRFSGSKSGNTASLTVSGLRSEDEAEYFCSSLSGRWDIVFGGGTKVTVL
Quantitative result: 1.2
--
Binder: PGT-137 (B cell culture well 5345_I1) (antibody, V domains shown) VH: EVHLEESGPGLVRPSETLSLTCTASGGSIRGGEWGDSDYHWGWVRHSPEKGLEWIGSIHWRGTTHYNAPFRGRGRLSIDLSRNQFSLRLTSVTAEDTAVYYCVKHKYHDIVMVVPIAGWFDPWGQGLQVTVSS VL: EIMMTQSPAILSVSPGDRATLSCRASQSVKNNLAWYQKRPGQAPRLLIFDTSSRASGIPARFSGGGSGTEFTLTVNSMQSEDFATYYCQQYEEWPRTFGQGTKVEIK
Quantitative result: 11.3
--
Binder: PGT-123 (B cell culture well 4858_P8) (antibody, V domains shown) VH: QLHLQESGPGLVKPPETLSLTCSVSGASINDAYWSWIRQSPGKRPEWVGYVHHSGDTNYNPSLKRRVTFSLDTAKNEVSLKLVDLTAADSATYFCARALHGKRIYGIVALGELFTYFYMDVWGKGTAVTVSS VL: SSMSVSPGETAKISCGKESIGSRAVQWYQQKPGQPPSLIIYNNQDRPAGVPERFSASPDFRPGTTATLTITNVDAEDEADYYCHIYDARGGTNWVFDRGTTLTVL
Quantitative result: 33.8
--
Binder: PGT-126 (B cell culture well 5141_B17) (antibody, V domains shown) VH: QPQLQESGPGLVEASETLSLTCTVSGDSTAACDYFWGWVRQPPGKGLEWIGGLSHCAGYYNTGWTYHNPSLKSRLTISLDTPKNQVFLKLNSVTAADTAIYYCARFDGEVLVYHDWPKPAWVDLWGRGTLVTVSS VL: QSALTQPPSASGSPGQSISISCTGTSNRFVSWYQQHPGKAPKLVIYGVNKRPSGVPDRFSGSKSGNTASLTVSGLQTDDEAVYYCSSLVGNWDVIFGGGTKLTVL
Quantitative result: 654
--
Binder: PGT-127 (B cell culture well 5145_B14) (antibody, V domains shown) VH: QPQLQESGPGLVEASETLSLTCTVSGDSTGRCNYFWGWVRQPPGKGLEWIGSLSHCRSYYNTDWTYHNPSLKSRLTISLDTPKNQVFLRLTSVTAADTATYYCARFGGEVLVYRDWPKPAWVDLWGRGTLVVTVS VL: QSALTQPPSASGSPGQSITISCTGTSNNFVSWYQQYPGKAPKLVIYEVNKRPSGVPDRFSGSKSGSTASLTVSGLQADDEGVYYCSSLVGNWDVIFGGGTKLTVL
Quantitative result: 86.9

Query PGT-125 (B cell culture well 5123_A6) (antibody, V domains shown) VH: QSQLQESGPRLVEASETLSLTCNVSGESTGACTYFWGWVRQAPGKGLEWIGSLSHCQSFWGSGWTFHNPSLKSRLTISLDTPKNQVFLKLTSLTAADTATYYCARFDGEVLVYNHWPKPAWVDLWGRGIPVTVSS VL: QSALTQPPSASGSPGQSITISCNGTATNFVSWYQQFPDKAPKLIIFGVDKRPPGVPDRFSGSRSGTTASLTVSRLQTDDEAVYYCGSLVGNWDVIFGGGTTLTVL yields Primary Neutralization Index (B cell culture supernatant) of 512

Per the record, PGT-128 (B cell culture well 5114_A19) (antibody, V domains shown) VH: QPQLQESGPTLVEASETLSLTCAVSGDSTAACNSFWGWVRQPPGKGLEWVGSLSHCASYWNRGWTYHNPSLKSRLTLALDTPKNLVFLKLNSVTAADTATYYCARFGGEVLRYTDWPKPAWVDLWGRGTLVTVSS VL: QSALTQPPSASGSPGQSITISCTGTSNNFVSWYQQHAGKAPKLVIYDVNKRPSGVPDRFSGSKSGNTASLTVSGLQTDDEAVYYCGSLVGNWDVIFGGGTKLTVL has Primary Neutralization Index (B cell culture supernatant) of 17.1

Antibody of B cell culture well 4869_K15 (antibody, V domains shown) VH: QVHLQESGPGLVTPSETLSLTCTVSNGSVSGRFWSWIRQSPGRGLEWIGYFSDTDRSEYNPSLRSRLTLSVDRSKNQLSLRLKSVTAADSATYYCARAQQGKRIYGIVSFGEFFYYYYMDAWGKGTPVTVSS VL: SLNPLSLAPGATAKIPCGERSRGSRAVQWYQQKPGQAPTLIIYNNQDRPAGVSERFSGNPDVAIGVTATLTISRVEVGDEADYYCHYWDSRSPISWIFGGGTQLTVL yielded Primary Neutralization Index (B cell culture supernatant) of 104
